Ref: patent US8476197B2

TEST CONTEXT: pH 7.5
Entries whose Log P is below 3 take label 1; entries at or above 3 take label 0.

// known answers, use as guide
MOLECULE	ASSIGNED CLASS
CCOC(=O)C(C#N)=C(NC(C)C(C)C)c1cccnc1-c1cccc(Cl)c1 (centres unmarked) [Compound 1568]	label 0
CCOC(=O)C(C#N)=C(NC(C)c1nccs1)c1cccnc1C (racemic) [Compound 152]	label 1
CCOC(=O)C(C#N)=C(Nc1ccccc1SC)c1cc(Cl)cnc1Cl [Compound 346]	label 0

I'd appreciate it if you could check whether CC(NC(=C(C#N)C(=O)OC1COC1)c1cccnc1Cl)C1CC1 (centres unmarked) [Compound 1281] has Log P smaller than 3. label 1

I'd appreciate it if you could check whether CSc1ccccc1NC(=C(C#N)C(=O)OCC(F)(F)F)c1cccnc1Cl [Compound 344] has Log P smaller than 3. label 0

Check if Log P falls below 3 for CONC(=O)C(C#N)=C(NC(C)C(C)C)c1cccnc1Cl (centres unmarked) [Compound 960] . label 1

Quick check: does CCOC(=O)C(C#N)=C(Nc1cnc2sccc2c1)c1cccnc1Cl [Compound 1310] have Log P under 3? label 1

Is Log P of COC(=O)C(C#N)=C(NCC1CCCO1)c1cccnc1Cl (centres unmarked) [Compound 16] strictly below 3? label 1

Does the reported Log P of the following molecule sit strictly below 3? CCOC(=O)C(C#N)=C(NC1CCCNC1=O)c1cccnc1Cl (racemic) [Compound 239] label 1

Item CCOC(=O)C(C#N)=C(NC(C)COS(C)(=O)=O)c1cccnc1Cl (centres unmarked) [Compound 1107] : Log P beneath 3, strictly? label 1

Bench note: check whether CCOC(=O)C(C#N)=C(NC(C)c1nccs1)c1ccc(C)nc1Cl (centres unmarked) [Compound 24] shows Log P below 3 label 1

---

Attribute: Log P
TEST CONTEXT: pH 2.7
Marks after values point to notes of the source that are not given here.

COMPOUND	RESULT
CCOC(=O)C(C#N)=C(NCc1nccs1)c1c(C)nn(C)c1Cl [Compound 86]	2.13^[a]
CCOC(=O)C(C#N)=C(Nc1ccc2ncsc2c1)c1sccc1Br [Compound 469]	3.09^[a]
CCOC(=O)C(C#N)=C(NC(C(=O)NC)c1ccccc1)c1cccnc1Cl (centres unmarked) [Compound 1087]	2.43^[a]

Return value of Log P for input CC(C)C(C)NC(=C(C#N)C(=O)NCCF)c1cccnc1Cl (centres unmarked) [Compound 1593] , no commentary. 2.76^[a]

Retrieve Log P measured for CCOC(=O)C(C#N)=C(NC(C)COc1c(C)cccc1C)c1sccc1C(F)(F)F (racemic) [Compound 654] and print it. 4.89^[a]

---

TEST CONTEXT: pH 2.7
Marks after values point to notes of the source that are not given here.
MEASURED ENDPOINT: Log P

Example entries and their recorded answers appear below.
COMPOUND	RESULT
CCOC(=O)C(C#N)=C(NC(C)CC)c1cccnc1C(F)(F)F (racemic)	3.27^[a]
COC(=O)/C(C#N)=C(\NCC(C)N)c1sc(C)nc1C(F)(F)F (centres unmarked)	0.94^[a]

Fill in reported Log P for this entry: CCOC(=O)C(C#N)=C(NC(C)C1CC=CCC1)c1cccnc1Cl (centres unmarked) 3.9^[a]

Give me measured Log P, please, for this compound: CCOC(=O)C(C#N)=C(NC(C)c1ccccn1)c1c(C(F)F)nn(C)c1F (centres unmarked) 2.73^[a]

---

TEST CONTEXT: pH 2.7
Marks after values point to notes of the source that are not given here.
MEASURED ENDPOINT: Log P

MOLECULE	Log P
CCOC(=O)C(C#N)=C(NC1(C(=O)OC(C)CC)CC1)c1cc(C)oc1C (stereo not shown)	3.94^[a]
CCCCCC(C)NC(=C(C#N)C(=O)OCC)c1sccc1Br (racemic) [Compound 846]	5.03^[a]
CCOC(=O)C(C#N)=C(NC(C)COC)c1scnc1Cl (stereo not shown)	2.61^[a]
CCOC(=O)C(C#N)=C(NC(C)c1ccc(Cl)cc1)c1sccc1Cl (stereo not shown)	4.4^[a]
CCOC(=O)C(C#N)=C(Nc1cccc2cn(C)nc12)c1cccnc1Cl	2.68^[a]
CCOC(=O)C(C#N)=C(NC1CCC(OCC)CC1)c1cn(C)nc1C(F)F (stereo not shown)	3.08^[a]
CCOC(=O)C(C#N)=C(NC(C)c1nc(C)c(C)s1)c1cn(C)nc1C(F)F (racemic)	2.96^[a]
CCOCC(CC)NC(=C(C#N)C(=O)OCC)c1cccnc1Cl (stereo not shown)	3.31^[a]

Annotate the molecule CCOC(=O)C(C#N)=C(NC(C)C(C)CC)c1cnn(C)c1Cl (mixture of isomers) with its measured Log P. 3.6^[a]

Return the recorded Log P value; entry: CCOC(=O)C(C#N)=C(NC1CCC1)c1nc(Cl)ccc1Cl 3.58^[a]

Write down Log P measured for item CCOC(=O)C(C#N)=C(NC(C)C(N)=O)c1sccc1C(F)(F)F (stereo not shown) [Compound 610] 2.07^[a]

Recall and state the measured Log P for COC(=O)C(C#N)=C(NC(c1ccccc1)C1CC1)c1cccnc1Cl (stereo not shown) . 3.24^[a]

Input CCOC(=O)C(C#N)=C(NC(C)CF)c1ccncc1Cl (stereo not shown) , output reported Log P. 2.42^[a]

Look up and report measured Log P for this entry: CCOC(=O)C(C#N)=C(NC(C)COC)c1ccnc2ccccc12 (stereo not shown) 2.5^[a]

Give Log P for the following molecule: CCOC(=O)C(C#N)=C(NC(C)(C)C=C(Cl)Cl)c1sccc1Br 4.21^[a]

Please list Log P recorded for the molecule COC(=O)C(C#N)=C(Nc1ccc(N(C)C)cc1)c1sc(C)nc1C(F)(F)F 3.31^[a]

---

Readings of Log P for the listed compounds
TEST CONTEXT: pH 2.3
Marks after values point to notes of the source that are not given here.

COMPOUND	Log P
CCOC(=O)C(C#N)=C(Nc1cccc(F)c1OC)c1cccnc1Cl	3.13^[c]; 3.13^[b]

Could you please provide reported Log P for COC(=O)C(C#N)=C(Nc1ccccc1SC)c1cccnc1Cl ? Thanks! 2.82^[c]; 2.82^[b]

Tell me measured Log P for CCOC(=O)C(C#N)=C(NC(C)C(C)C)c1cccnc1-c1cccs1 (stereo not drawn) please. 3.7^[c]; 3.7^[b]

---

TEST CONTEXT: pH 2.7
Marks after values point to notes of the source that are not given here.
The following molecules are listed with their measured Log P values.

Use these answered entries as a reference point.
MOLECULE	RESULT
CCOC(=O)C(C#N)=C(NC(C)c1nccs1)c1cc(Cl)ncc1Cl (racemic) [Compound 252]	3.15^[a]
CCOC(=O)C(C#N)=C(NC(C)C1CCCO1)c1sccc1Br (mixture of isomers) [Compound 186]	3.35^[a]
CCOC(=O)C(C#N)=C(NC(C)c1ccccn1)c1cc(Cl)sc1Cl (racemic) [Compound 222]	2.41^[a]

Identify measured Log P associated with COC(=O)C(C#N)=C(NC(C)c1ccccc1Cl)c1cccnc1Cl (stereo not drawn) [Compound 375] 3.19^[a]

Return the recorded Log P value; entry: CCOC(=O)C(C#N)=C(NC1CCCCC1)c1cc(Cl)sc1Cl [Compound 1630] 4.92^[a]

Read the entry COC(=O)C(C#N)=C(NC(C)Cc1ccccc1C)c1cccnc1Cl (stereo not drawn) [Compound 423] and write its reported Log P. 3.23^[a]

Look up and report measured Log P for this entry: CCOC(=O)C(C#N)=C(NC(C)CC)c1cccnc1Cl (stereo not drawn) [Compound 1174] 3^[a]

Identify Log P associated with the molecule CCOC(=O)C(C#N)=C(NC(C(=O)OC)C(C)C)c1sccc1Br (stereo not drawn) [Compound 650] 3.67^[a]

Give the reported Log P for this molecule. CCOC(=O)C(C#N)=C(NCC(C)N)c1cn(C)nc1C(F)F (racemic) [Compound 579] 0.84^[a]

Write down Log P measured for item CCOC(=O)C(C#N)=C(NC1CCC1)c1cccnc1Cl [Compound 1186] 2.92^[a]

Please report Log P for the following molecule: C#CC(C)(C)NC(=C(C#N)C(=O)OCC)c1sccc1Br [Compound 1027] 3.42^[a]

Determine from records and report Log P for CCCCC[C@H](C)N/C(=C(/C#N)C(=O)OCC)c1ccsc1Br [Compound 861] 4.94^[a]

Query Log P for CCOC(=O)C(C#N)=C(NC(C)C1CCCCC1)c1cn(C)nc1C(F)F (stereo not drawn) [Compound 872] 3.92^[a]

Report Log P for CCOC(=O)C(C#N)=C(NC(C)c1nccs1)c1cnccc1Br (racemic) [Compound 257] 2.88^[a]

Report Log P, nothing else, for this molecule: CCOC(=O)C(C#N)=C(NC(C)c1ccc(C)cc1)c1sccc1Br (mixture of isomers) [Compound 447] 4.49^[a]
